target: T1, recombinant human PD-1 expressed with a C-terminal myc-myc-hexahistidine tag (human); assay: SPR (Biacore), mAb captured, hPD-1-MMH injected, 25 C;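 note: rate constants obtained by fitting sensorgrams to a 1:1 binding model, KD derived as kd/ka and half-life as ln2/(60·kd) in minutes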
T1 construct: also called hPD-1-MMH; human PD-1-MMH
T1 sequence (chain, as listed by the source limits assumed): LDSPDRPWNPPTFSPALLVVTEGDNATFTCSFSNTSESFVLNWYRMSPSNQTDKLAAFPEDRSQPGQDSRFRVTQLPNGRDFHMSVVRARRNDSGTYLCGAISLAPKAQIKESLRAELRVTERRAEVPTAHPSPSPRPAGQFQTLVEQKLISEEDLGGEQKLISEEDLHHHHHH
endpoint_label: koff (s⁻¹)
The reply should contain only the number, in s⁻¹.

Check out these entries, answers already filled in.
binder	measured_result
H4H7798N (antibody, human IgG4 S228P, kappa, V domains shown) VH: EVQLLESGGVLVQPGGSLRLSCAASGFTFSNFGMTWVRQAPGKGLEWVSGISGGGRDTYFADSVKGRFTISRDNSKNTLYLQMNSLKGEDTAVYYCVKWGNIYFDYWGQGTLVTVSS VL: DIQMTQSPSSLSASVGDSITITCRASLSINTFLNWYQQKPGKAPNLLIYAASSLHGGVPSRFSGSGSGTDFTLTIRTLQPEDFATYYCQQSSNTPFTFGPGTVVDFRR	0.000443
H2aM7798N (antibody, mouse IgG2a, V domains shown, Human variable domains, mouse IgG2a Fc; also called H2M7798N) VH: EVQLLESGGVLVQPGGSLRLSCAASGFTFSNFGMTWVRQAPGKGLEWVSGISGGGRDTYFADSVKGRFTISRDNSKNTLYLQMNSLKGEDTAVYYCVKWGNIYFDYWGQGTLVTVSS VL: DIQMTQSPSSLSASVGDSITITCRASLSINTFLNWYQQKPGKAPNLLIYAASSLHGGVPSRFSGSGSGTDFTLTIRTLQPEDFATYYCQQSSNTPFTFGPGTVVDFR	0.000306

Req: For the binder shown here, H1M7799N (antibody, mouse IgG1, V domains shown, Human variable domains, mouse IgG1 Fc) VH: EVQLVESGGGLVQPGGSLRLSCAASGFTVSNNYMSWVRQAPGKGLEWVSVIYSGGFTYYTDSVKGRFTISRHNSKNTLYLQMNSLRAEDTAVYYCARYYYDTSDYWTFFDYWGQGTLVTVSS VL: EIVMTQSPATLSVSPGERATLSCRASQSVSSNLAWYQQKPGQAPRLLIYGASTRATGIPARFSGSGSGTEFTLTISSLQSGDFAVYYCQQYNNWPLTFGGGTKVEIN , give the reported koff.
Resp: 0.0123
